assay: ATG_NRF2_ARE_CIS: Attagene CIS-FACTORIAL HepG2 Assay for human Nuclear Factor Erythroid 2 Related Factor 2 (NFR2) response to Antioxidant Response Elements (ARE) (AID 2282992); settings: HepG2 Attagene ARE/NRF2 reporter, transcription factor activity; actives raise or lower the signal
Activity calls are given as the source filed them. The calls were made as follows: active = hit-call score of the fitted dose curve at least 0.9, where 1 is the maximum; inactive = score below 0.9.
Outcome (select one): active, inactive

Field: example entries. Status: answers known.
Compound	Category
NS(=O)(=O)c1cc2c(cc1Cl)NCNS2(=O)=O	inactive
CCCCCC(=O)O	inactive

Request: Which outcome did this test record for the compound CC(=O)OC/C=C(\C)CCC=C(C)C ?
Response: inactive

Request: How was OC[C@@H](O)[C@@H](O)[C@H](O)[C@H](O)CO classified in this test?
Response: inactive

Request: Test call, this compound: CCCCC(CC)COC(=O)CC(C(=O)OCC(CC)CCCC)S(=O)(=O)O (stereo not given)
Response: active

Request: What did the test return for C=CCc1ccc(O)c(OC)c1 ?
Response: active

Request: Which outcome was entered for the compound COC(=O)c1ccc(O)cc1 in this test?
Response: inactive

====

molecular target: human Janus Kinase 2 (Jak2), JAK2 (gene 3717); assay: NVS_ENZ_hJak2: NovaScreen (NVS) Enzymatic Assay for human Janus Kinase 2 (Jak2) (AID 2283169)
Records with an inconclusive call do not appear. The source made the active and inactive calls. Rule for the calls: active = hit-call score of the fitted dose curve at least 0.9, where 1 is the maximum; inconclusive = response in the unintended direction; inactive = score below 0.9.
Measurement Label: AC50

Here are 4 compounds together with their reported answers.
Compound	AC50
CCCCCCCCCCCCCCCC	inactive
FC(F)(F)C(F)(F)C(F)(F)C(F)(F)C(F)(F)C(F)(F)CCI	inactive
Cc1oc(-c2ccccc2)nc1CCOc1cccc2c1ccn2CCC(=O)O	inactive
CC1=C(/C=C/C(C)=C/C=C/C(C)=C/CO)C(C)(C)CCC1	inactive

Consider the record given below.
Sure, the documented AC50 for Cc1nc(-c2ccc3c(c2)CCN(CCC2CCC(NC(=O)/C=C/c4ccc(F)cc4)CC2)CC3)no1 (stereo not given) is 17.1 µM (active)

====

Assay: BSK_BE3C_SRB: Viability Assessment in the BioMAP Diversity Plus: BE3C Assay (AID 2283028)
Details: primary human bronchial epithelial cells
Procedure: BSK_BE3C is a cell-based, multiplexed-readout assay that uses bronchial epithelial cell, a human lung primary cell, with measurements taken at 24 hours after chemical dosing in a 96-well plate.BSK_BE3C_SRB is an assay component measured in the BSK_BE3C assay. It measures 0.1% sulforhodamine related to cell death using Sulforhodamine staining technology.Data from the assay component BSK_BE3C_SRB was analyzed into 1 assay endpoint. […]
Calls of active or inactive are those of the source. The calls were made as follows: active = hit-call score of the fitted dose curve at least 0.9, where 1 is the maximum; inactive = score below 0.9.
Hi there, use one of these labels in your reply, thanks! active, inactive

Past entries and their recorded results:
Compound	Category
CC=Cc1ccc(O)c(OC)c1	inactive
O=C(O)Cc1ccccc1Nc1c(Cl)cccc1Cl	inactive
Cc1nc(-c2ccc3c(c2)CCN(CCC2CCC(NC(=O)/C=C/c4ccc(F)cc4)CC2)CC3)no1 (stereo not given)	inactive
CCCCC(CC)COC(=O)CC(C(=O)OCC(CC)CCCC)S(=O)(=O)O (stereo not given)	active

Request: Could you please tell me the result logged for COCCOC[C@H](CC1(C(=O)NC2CCC(C(=O)O)CC2)CCCC1)C(=O)Oc1ccc2c(c1)CCC2 (stereo not given in full) in this assay?
Response: inactive
